Numbers sourced from patent US20160060347A1.

- target_or_system: T1, human CXCR2 (human, UniProt P25025 1-360)
- T1 construct: Expressed on Flp-In CHO cells (FACS, Fab-ZAP, ADCC, CDC) or on bought PathHunter CHO cells (beta-arrestin assay); the construct in the PathHunter cells is not described; also called chemokine receptor CXCR2; CXCR2 CHO Flp-In cells
- T1 sequence: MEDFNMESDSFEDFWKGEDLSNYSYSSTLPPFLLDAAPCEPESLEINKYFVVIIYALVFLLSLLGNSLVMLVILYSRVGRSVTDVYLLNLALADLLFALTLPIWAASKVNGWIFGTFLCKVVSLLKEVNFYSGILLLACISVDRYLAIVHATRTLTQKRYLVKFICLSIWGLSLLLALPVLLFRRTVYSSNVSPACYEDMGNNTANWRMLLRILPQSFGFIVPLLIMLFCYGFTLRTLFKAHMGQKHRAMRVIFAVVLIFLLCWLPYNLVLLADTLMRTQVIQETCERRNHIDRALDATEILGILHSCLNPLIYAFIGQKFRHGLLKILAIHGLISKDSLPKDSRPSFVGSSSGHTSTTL
- experiment_notes: FACS, CXCR2 CHO Flp-In cells, Fab

binder	binding result
CX2-Mab #15 (Fab, V domains shown) VH: EVQLLESGGGLVQPGGSLRLSCAASGFTFSRYWMSWVRQAPGKGLEWVSVISYSGSETYYADSVKGRFTISRDNSKNTLYLQMNSLRAEDTAVYYCARGRAYGYFDPWGQGTLVTVSS VL: DIVLTQPPSVSGAPGQRVTISCSGSSSNIGKKTVSWYQQLPGTAPKLLIYRNNQRPSGVPDRFSGSKSGTSASLAITGLQAEDEADYYCGSTTSSHLYVFGGGTKLTVLG	binds
CX2-Mab #16 (Fab, V domains shown) VH: EVQLLESGGGLVQPGGSLRLSCAASGFTFSRYWMSWVRQAPGKGLEWVSVISYSGSETYYADSVKGRFTISRDNSKNTLYLQMNSLRAEDTAVYYCARGRAYGYFDPWGQGTLVTVSS VL: DIVLTQPPSVSGAPGQRVTISCSGSSSNIGKKTVSWYQQLPGTAPKLLIYRNNQRPSGVPDRFSGSKSGTSASLAITGLQAEDEADYYCGSTGYRGLYVFGGGTKLTVLG	binds
CX2-Mab #10 (Fab, V domains shown) VH: EVQLLESGGGLVQPGGSLRLSCAASGFTFSRYWMSWVRQAPGKGLEWVSVISYSGSETYYADSVKGRFTISRDNSKNTLYLQMNSLRAEDTAVYYCARGRAYGYFDPWGQGTLVTVSS VL: DIVLTQPPSVSGAPGQRVTISCSGSSSNIGKKTVSWYQQLPGTAPKLLIYRNNQRPSGVPDRFSGSKSGTSASLAITGLQAEDEADYYCSSTTSSSRSVVFGGGTKLTVLG	binds
